Reference source: BigSolDB 2.1

assay.context: in ethyl acetate, 335.15 K
endpoint: solubility (mole fraction)
Format: numeric value only, no unit, no commentary.

solubility (mole fraction) for CC(C)(C)c1cc(O)c(C(C)(C)C)cc1O is 0.183

###

assay.context: in methanol, 333.15 K
endpoint: solubility (mole fraction)
Reply: number alone, nothing else.

get_value(item= CC(C)(C)c1cc(O)c(C(C)(C)C)cc1O , readout=solubility (mole fraction)) returns 0.0863

###

assay.context: in ethyl acetate, 319.15 K
endpoint: solubility (mole fraction)
Reply briefly: the number, and no unit.

So for CC(C)(C)c1cc(O)c(C(C)(C)C)cc1O , the logged solubility (mole fraction) turned out to be 0.169

###

assay.context: in ethyl acetate, 346.15 K
endpoint: solubility (mole fraction)
No unit in the answer, please; the number alone is enough.

The value of solubility (mole fraction) measured for the molecule CC(C)(C)c1cc(O)c(C(C)(C)C)cc1O turned out to be 0.195

###

assay.context: in methanol, 316.15 K
endpoint: solubility (mole fraction)
Lab note: write the figure by itself, no unit.

GET /value?item= CC(C)(C)c1cc(O)c(C(C)(C)C)cc1O &field=solubility (mole fraction) returns 0.0766

###

assay.context: in acetone, 310.25 K
endpoint: solubility (mole fraction)
Would you mind answering with just the numeric figure?

# molecule CC(C)(C)c1cc(O)c(C(C)(C)C)cc1O ; its solubility (mole fraction) = 0.1

###

assay.context: in methanol, 307.25 K
endpoint: solubility (mole fraction)
Give only the figure.

Record summary for CC(C)(C)c1cc(O)c(C(C)(C)C)cc1O : reported solubility (mole fraction) = 0.072

###

assay.context: in acetone, 305.45 K
endpoint: solubility (mole fraction)
Please give only the number in your answer, with no unit.

Looking up CC(C)(C)c1cc(O)c(C(C)(C)C)cc1O , I see its solubility (mole fraction) listed as 0.0836

###

assay.context: in ethyl acetate, 290.45 K
endpoint: solubility (mole fraction)

# solubility (mole fraction) (compound: CC(C)(C)c1cc(O)c(C(C)(C)C)cc1O ) is 0.148

###

assay.context: in acetone, 321.15 K
endpoint: solubility (mole fraction)

For CC(C)(C)c1cc(O)c(C(C)(C)C)cc1O the compound record lists solubility (mole fraction) as 0.148

###

assay.context: in ethyl acetate, 281.55 K
endpoint: solubility (mole fraction)
Keep the answer to the number alone.

Recorded solubility (mole fraction) (compound CC(C)(C)c1cc(O)c(C(C)(C)C)cc1O ): 0.145

###

assay.context: in methanol, 290.65 K
endpoint: solubility (mole fraction)
Answer with a number only.

Reported solubility (mole fraction) of CC(C)(C)c1cc(O)c(C(C)(C)C)cc1O : 0.0658

###

assay.context: in ethyl acetate, 325.15 K
endpoint: solubility (mole fraction)
API doc: respond with a numeric literal and nothing else, no unit.

Value of solubility (mole fraction) reported for the molecule CC(C)(C)c1cc(O)c(C(C)(C)C)cc1O is 0.173

###

assay.context: in methanol, 305.15 K
endpoint: solubility (mole fraction)
Please give only the number in your answer, with no unit.

The reported solubility (mole fraction) of the compound CC(C)(C)c1cc(O)c(C(C)(C)C)cc1O was 0.0712

###

assay.context: in acetone, 295.35 K
endpoint: solubility (mole fraction)
Lab note: jot down the number only; don't add units.

solubility (mole fraction) recorded for this molecule, CC(C)(C)c1cc(O)c(C(C)(C)C)cc1O , is 0.057

###

assay.context: in methanol, 285.95 K
endpoint: solubility (mole fraction)
# respond with the number and nothing more

Measured solubility (mole fraction) of CC(C)(C)c1cc(O)c(C(C)(C)C)cc1O : 0.0651

###

assay.context: in methanol, 295.55 K
endpoint: solubility (mole fraction)
Number only, please.

Just so you know, measured solubility (mole fraction) for CC(C)(C)c1cc(O)c(C(C)(C)C)cc1O came out at 0.0678

###

assay.context: in methanol, 328.15 K
endpoint: solubility (mole fraction)
Quick one: just the number, no unit, thanks!

Looking up CC(C)(C)c1cc(O)c(C(C)(C)C)cc1O , I see its solubility (mole fraction) listed as 0.0833

###

assay.context: in ethyl acetate, 284.45 K
endpoint: solubility (mole fraction)
Write the value as a bare number.

Measured solubility (mole fraction) of CC(C)(C)c1cc(O)c(C(C)(C)C)cc1O : 0.146

###

assay.context: in methanol, 297.95 K
endpoint: solubility (mole fraction)
Give the value as a plain number.

Measured solubility (mole fraction), CC(C)(C)c1cc(O)c(C(C)(C)C)cc1O : 0.0688

###

assay.context: in methanol, 309.85 K
endpoint: solubility (mole fraction)
Answer using only a numeral; do not append any unit.

solubility (mole fraction) reading for CC(C)(C)c1cc(O)c(C(C)(C)C)cc1O : 0.0727

###

assay.context: in ethyl acetate, 293.15 K
endpoint: solubility (mole fraction)

Field solubility (mole fraction) (entry CC(C)(C)c1cc(O)c(C(C)(C)C)cc1O ) reads 0.15

###

assay.context: in acetone, 283.35 K
endpoint: solubility (mole fraction)
Answer with a number only.

// solubility (mole fraction) lookup, compound = CC(C)(C)c1cc(O)c(C(C)(C)C)cc1O , result: 0.0332

###

assay.context: in methanol, 325.15 K
endpoint: solubility (mole fraction)
Simply state the number, no unit and no words.

So, CC(C)(C)c1cc(O)c(C(C)(C)C)cc1O ? Its solubility (mole fraction) was 0.0811

###

assay.context: in acetone, 303.15 K
endpoint: solubility (mole fraction)
Respond numerically, and do not add a unit to the figure.

Documented solubility (mole fraction) of CC(C)(C)c1cc(O)c(C(C)(C)C)cc1O : 0.0775

###

assay.context: in methanol, 312.05 K
endpoint: solubility (mole fraction)
Just the number.

# solubility (mole fraction) (compound: CC(C)(C)c1cc(O)c(C(C)(C)C)cc1O ) is 0.0734

###

assay.context: in ethyl acetate, 307.45 K
endpoint: solubility (mole fraction)

Note to self: solubility (mole fraction) recorded for CC(C)(C)c1cc(O)c(C(C)(C)C)cc1O was 0.158

###

assay.context: in ethyl acetate, 298.85 K
endpoint: solubility (mole fraction)
Write the value as a bare number.

// CC(C)(C)c1cc(O)c(C(C)(C)C)cc1O : solubility (mole fraction) value = 0.153

###

assay.context: in methanol, 288.15 K
endpoint: solubility (mole fraction)
I'd appreciate a reply containing only the number, no unit.

Just so you know, measured solubility (mole fraction) for CC(C)(C)c1cc(O)c(C(C)(C)C)cc1O came out at 0.0653

###

assay.context: in methanol, 322.15 K
endpoint: solubility (mole fraction)

CC(C)(C)c1cc(O)c(C(C)(C)C)cc1O has a reported solubility (mole fraction) of 0.08

###

assay.context: in methanol, 302.65 K
endpoint: solubility (mole fraction)
Hey, just send me the number, nothing else.

Documented solubility (mole fraction) of CC(C)(C)c1cc(O)c(C(C)(C)C)cc1O : 0.0707

###

assay.context: in ethyl acetate, 331.15 K
endpoint: solubility (mole fraction)
In your answer, state the number alone without any accompanying words.

Lab note: measured solubility (mole fraction) of CC(C)(C)c1cc(O)c(C(C)(C)C)cc1O was 0.18

###

assay.context: in ethyl acetate, 278.95 K
endpoint: solubility (mole fraction)
# output: bare number, no unit

// recorded solubility (mole fraction) for CC(C)(C)c1cc(O)c(C(C)(C)C)cc1O : 0.144

###

assay.context: in methanol, 280.95 K
endpoint: solubility (mole fraction)
Output spec: single numeric token, no unit.

Form: compound = CC(C)(C)c1cc(O)c(C(C)(C)C)cc1O ; solubility (mole fraction) = 0.0647

###

assay.context: in ethyl acetate, 343.15 K
endpoint: solubility (mole fraction)
Give the figure only, with no unit attached.

The recorded solubility (mole fraction) for CC(C)(C)c1cc(O)c(C(C)(C)C)cc1O is 0.194

###

assay.context: in acetone, 300.35 K
endpoint: solubility (mole fraction)

Lab note: measured solubility (mole fraction) of CC(C)(C)c1cc(O)c(C(C)(C)C)cc1O was 0.0691

###

assay.context: in acetone, 313.05 K
endpoint: solubility (mole fraction)
Answer with a bare number; do not write a unit.

Recorded solubility (mole fraction) (compound CC(C)(C)c1cc(O)c(C(C)(C)C)cc1O ): 0.12

###

assay.context: in methanol, 331.15 K
endpoint: solubility (mole fraction)
Give the figure only, with no unit attached.

// solubility (mole fraction) lookup, compound = CC(C)(C)c1cc(O)c(C(C)(C)C)cc1O , result: 0.0849

###

assay.context: in ethyl acetate, 337.15 K
endpoint: solubility (mole fraction)
Hey, just send me the number, nothing else.

The recorded solubility (mole fraction) for CC(C)(C)c1cc(O)c(C(C)(C)C)cc1O is 0.186
